Each entry below carries its reported ratio to parent.
B1: HCV E1 glycoprotein, H77 WT isolate [hepatitis C virus] / CD81 receptor [not stated] (parent complex)
chain 1: YQVRNSSGLYHVTNDCPNSSVVYEAADAILHTPGCVPCVREGNASRCWVAVTPTVATRDGKLPTTQLRRHIDLLVGSATLCSALYVGDLCGSVFLVGQLFTFSPRHHWTTQDCNCSIYPGHITGHRMAWNMMMNWSPTAALVVAQLLRIPQAIMDMIAGAHWGVLAGIKYFSMVGNWAKVLVVLLLFAGVDA
chain 2: MGVEGCTKCIKYLLFVFNFVFWLAGGVILGVALWLRHDPQTTNLLYLELGDKPAPNTFYVGIYILIAVGAVMMFVGFLGCYGAIQESQCLLGTFFTCLVILFACEVAAGIWGFVNKDQIAKDVKQFYDQALQQAVVDDDANNAKAVVKTFHETLDCCGSSTLTALTTSVLKNNLCPSGSNIISNLFKEDCHQKIDDLFSGKLYLIGIAAIVVAVIMIFEMILSMVLCCGIRNSSVY

Variants of: B1
Assay: CD81 receptor binding (method in S1 Text, not given); parent: 1; read off a plot

As a guide, the following entries are already answered.
• chain 1 C38A, chain 1 C113A = ~0.85
• chain 1 C47A, chain 1 C115A = ~0.85
• chain 1 E24C, chain 1 I29C = ~0.65
• chain 1 R4C, chain 1 Q111C = ~0.6
• chain 1 C16A, chain 1 C35A = ~0.8

Next variant, please.
Item: chain 1 C81A, chain 1 C90A | ratio to parent: ~1.1
